- Tested on: PCTK1
- Construct: gene CDK16
- Condition Set: concentration: 1 μM, replicates: in singlicate; n = 1
Measure Name: %Inh (%)

Compound: NS(=O)(=O)c1cccc(-c2ccc3nccc(-c4cccc(S(N)(=O)=O)c4)c3c2)c1
Target System: PCTK1
Unit Annotation: %
Measured Number: 0

Compound: COCCNC(=O)c1ccc(-c2cc(C(=O)NC3CC3)cc(F)c2C)cc1
Target System: PCTK1
Unit Annotation: %
Measured Number: 8

Compound: O=C(NCCNc1ccnc(Nc2ccc(F)cc2)n1)c1cc2ccccc2s1
Target System: PCTK1
Unit Annotation: %
Measured Number: 0

Compound: O=C1Cc2cc(Nc3nc(NCc4cccc(S(=O)(=O)C(F)(F)F)c4)ncc3C(F)(F)F)ccc2N1
Target System: PCTK1
Unit Annotation: %
Measured Number: 19

Compound: O=C(NCCNc1ccnc(Nc2ccc(F)cc2)n1)Nc1ccccc1F
Target System: PCTK1
Unit Annotation: %
Measured Number: 0

Compound: Cc1cccc(Cn2ccn3c(=O)cc(N4CCOCC4)nc23)c1
Target System: PCTK1
Unit Annotation: %
Measured Number: 6

Compound: O=C(c1ccc(-c2cc(-c3c[nH]nc3-c3ccccn3)ccn2)cc1)N1CCOCC1
Target System: PCTK1
Unit Annotation: %
Measured Number: 0

Compound: Cc1nnc(-c2ccc3ncc(-c4ccc(S(C)=O)cc4)n3c2)o1 (centres unmarked)
Target System: PCTK1;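 further: KINOMEscan kinase panel screen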
Unit Annotation: %
Measured Number: 14
